# Procedure Text: Cytotoxicity in African green monkey Vero B cells assessed as reduction in cell viability by MTS assay
# Type: cell-based
# Experimental Conditions: chlorocebus aethiops

Compound	CC50
CCCCCOCc1c(Nc2ccc(S(N)(=O)=O)cc2)nc(N2CCOCC2)nc1C(=O)NCc1ccc(OC)cc1	> 83.5 µM
O=C1c2nc(N3CCOCC3)nc(Nc3cccc(O)c3)c2CN1CCOc1ccccc1	> 100 µM
COc1ccc(CNC(=O)c2nc(N3CCOCC3)nc(Nc3cccc(O)c3)c2CO)cc1	> 107 µM
OCCNc1nc(Nc2cccc(O)c2)c2nc[nH]c2n1	> 175 µM
O=C(NCCc1ccccc1)c1nc(N2CCOCC2)nc(Nc2cccc(O)c2)c1CO	64.5 µM
NC(=O)c1ncn([C@@H]2O[C@H](CO)[C@@H](O)[C@H]2O)n1 [RIBAVIRIN]	> 409 µM
O=C1c2nc(N3CCOCC3)nc(Nc3cccc(O)c3)c2CN1CCc1ccccc1	> 116 µM
NS(=O)(=O)c1ccc(Nc2nc(N3CCOCC3)nc3c2CN(Cc2ccccc2)C3=O)cc1	> 104 µM
Oc1cccc(Nc2nc(NCCOc3ccccc3)nc3[nH]cnc23)c1	69.4 µM
COc1ccc(CN2Cc3c(Nc4cccc(O)c4)nc(N4CCOCC4)nc3C2=O)cc1	> 112 µM
NS(=O)(=O)c1ccc(Nc2nc(N3CCOCC3)nc(C(=O)NCc3ccccc3)c2CO)cc1	> 100 µM
NS(=O)(=O)c1ccc(Nc2nc(N3CCOCC3)nc3c2CN(CCOc2ccccc2)C3=O)cc1	> 97.9 µM
CCCCCOCc1c(Nc2cccc(O)c2)nc(N2CCOCC2)nc1C(=O)NCc1ccccc1	39.4 µM
O=C(NCc1ccccc1)c1nc(N2CCOCC2)nc(Nc2cccc(O)c2)c1CO	> 115 µM

---

# Tested on: dengue virus type 2
# Procedure Text: Antiviral activity against Dengue virus type 2 NGC infected in African green monkey Vero B cells assessed as reduction in virus yield
# Format: functional, organism-based, Thailand/NGS-C/1944
# Experimental Conditions: Dengue virus, Thailand/NGS-C/1944, Vero B; read-out: EC50
pEC50: −log10 of the molar value.
The following molecules are shown together with reported pEC50 values.

Given Smiles	Censoring Sign	pEC50
CCCCCOCc1c(Nc2cccc(O)c2)nc(N2CCOCC2)nc1C(=O)NCc1ccccc1	=	4.68
O=C1OCc2c(Nc3cccc(O)c3)nc(N3CCOCC3)nc21	<	3.89
CCCCCOCc1c(Nc2ccc(S(N)(=O)=O)cc2)nc(N2CCOCC2)nc1C(=O)NCCOc1ccccc1	=	5.74
COc1ccc(CN2Cc3c(Nc4ccc(S(N)(=O)=O)cc4)nc(N4CCOCC4)nc3C2=O)cc1	<	4.01
CCCCCOCc1c(Nc2cccc(O)c2)nc(N2CCOCC2)nc1C(=O)NCc1ccc(C(F)(F)F)cc1	=	4.96
O=C1c2nc(N3CCOCC3)nc(Nc3cccc(O)c3)c2CN1CCc1ccccc1	=	4.15
Oc1cccc(Nc2nc(N3CCOCC3)nc3[nH]cnc23)c1	=	4.39
NS(=O)(=O)c1ccc(Nc2nc(N3CCOCC3)nc3c2CN(Cc2ccccc2)C3=O)cc1	=	4.67
COc1ccc(CN2Cc3c(Nc4cccc(O)c4)nc(N4CCOCC4)nc3C2=O)cc1	<	3.95
Oc1cccc(Nc2nc(NCCOc3ccccc3)nc3[nH]cnc23)c1	=	5.00
